# test-method-notes: Changes over time of Z to E transition by 19F NMR
# Format: physicochemical
# particulars: 1 h, light 505 nm, 100 mM in DMSO
Recorded Z isomer, changes over time, one value per entry.
measured-property: Z isomer, changes over time (%)

molecule="COc1cc(/C=C/C(=O)c2cccc(/N=N/c3ccc(F)cc3F)c2)cc(OC)c1OC [Compound 17g]" test_result=43.69
molecule="COc1ccc(/C=C/C(=O)c2cccc(/N=N/c3ccc(F)cc3F)c2)cc1OC [Compound 17e]" test_result=45.35
molecule="COc1cc(/C=C/C(=O)c2cccc(/N=N/c3ccc(F)cc3)c2)cc(OC)c1 [Compound 17b]" test_result=32.21
molecule="COc1cc(/C=C/C(=O)c2cccc(/N=N/c3ccc(F)cc3F)c2)cc(OC)c1 [Compound 17f]" test_result=46.61
molecule="COc1cc(/C=C/C(=O)c2cccc(/N=N/c3ccc(F)cc3)c2)cc(OC)c1OC [Compound 17c]" test_result=30.16
molecule="COc1ccc(/C=C/C(=O)c2cccc(/N=N/c3ccc(F)cc3)c2)cc1OC [Compound 17a]" test_result=31.33

----------
# test-method-notes: Changes over time of Z to E transition by 19F NMR
# Format: physicochemical
# particulars: 7 h, light 505 nm, 100 mM in DMSO
Labelling field: enter 1 if recorded Z isomer, changes over time is less than 40%. Enter 0 if it equals or exceeds that cut-off.

compound="COc1cc(/C=C/C(=O)c2cccc(/N=N/c3ccc(F)cc3)c2)cc(OC)c1 [Compound 17b]" assigned_label=1
compound="COc1ccc(/C=C/C(=O)c2cccc(/N=N/c3ccc(F)cc3F)c2)cc1OC [Compound 17e]" assigned_label=0
compound="COc1cc(/C=C/C(=O)c2cccc(/N=N/c3ccc(F)cc3F)c2)cc(OC)c1 [Compound 17f]" assigned_label=0
compound="COc1ccc(/C=C/C(=O)c2cccc(/N=N/c3ccc(F)cc3)c2)cc1OC [Compound 17a]" assigned_label=1
compound="COc1cc(/C=C/C(=O)c2cccc(/N=N/c3ccc(F)cc3)c2)cc(OC)c1OC [Compound 17c]" assigned_label=1

----------
Z isomer, changes over time values, listed per item
# test-method-notes: Changes over time of Z to E transition by 19F NMR
# Format: physicochemical
# particulars: 0 h, light 525 nm, 100 mM in DMSO
measured-property: Z isomer, changes over time (%)

molecule="COc1ccc(/C=C/C(=O)c2cccc(/N=N/c3c(F)cccc3F)c2)cc1OC [Compound 17i]" measured_property="Z isomer, changes over time" unit_name=% test_result=74.84
molecule="COc1cc(/C=C/C(=O)c2cccc(/N=N/c3c(F)cccc3F)c2)cc(OC)c1OC [Compound 17k]" measured_property="Z isomer, changes over time" unit_name=% test_result=74.39
molecule="O=C(/C=C/c1ccc(Br)cc1)c1cccc(/N=N/c2c(F)cccc2F)c1 [Compound 17l]" measured_property="Z isomer, changes over time" unit_name=% test_result=75.44
molecule="COc1cc(/C=C/C(=O)c2cccc(/N=N/c3c(F)cccc3F)c2)cc(OC)c1 [Compound 17j]" measured_property="Z isomer, changes over time" unit_name=% test_result=73.2

----------
# test-method-notes: Changes over time of Z to E transition by 19F NMR
# Type: physicochemical
# particulars: 5 h, light 505 nm, 100 mM in DMSO
measured-property: Z isomer, changes over time (%)

compound="COc1cc(/C=C/C(=O)c2cccc(/N=N/c3ccc(F)cc3F)c2)cc(OC)c1 [Compound 17f]" test_result=43.95
compound="COc1cc(/C=C/C(=O)c2cccc(/N=N/c3ccc(F)cc3)c2)cc(OC)c1OC [Compound 17c]" test_result=25.61
compound="COc1ccc(/C=C/C(=O)c2cccc(/N=N/c3ccc(F)cc3F)c2)cc1OC [Compound 17e]" test_result=43.39
compound="COc1cc(/C=C/C(=O)c2cccc(/N=N/c3ccc(F)cc3)c2)cc(OC)c1 [Compound 17b]" test_result=26.74
compound="COc1ccc(/C=C/C(=O)c2cccc(/N=N/c3ccc(F)cc3)c2)cc1OC [Compound 17a]" test_result=27.66
compound="COc1cc(/C=C/C(=O)c2cccc(/N=N/c3ccc(F)cc3F)c2)cc(OC)c1OC [Compound 17g]" test_result=40.61

----------
# Z isomer, changes over time values compiled below
# test-method-notes: Changes over time of Z to E transition by 19F NMR
# Assay type: physicochemical
# particulars: 1 h, light 525 nm, 100 mM in DMSO
measured-property: Z isomer, changes over time

molecule="COc1cc(/C=C/C(=O)c2cccc(/N=N/c3c(F)cccc3F)c2)cc(OC)c1 [Compound 17j]" measured_property="Z isomer, changes over time" test_result=72.55%
molecule="O=C(/C=C/c1ccc(Br)cc1)c1cccc(/N=N/c2c(F)cccc2F)c1 [Compound 17l]" measured_property="Z isomer, changes over time" test_result=74.04%
molecule="COc1ccc(/C=C/C(=O)c2cccc(/N=N/c3c(F)cccc3F)c2)cc1OC [Compound 17i]" measured_property="Z isomer, changes over time" test_result=73.32%
molecule="COc1cc(/C=C/C(=O)c2cccc(/N=N/c3c(F)cccc3F)c2)cc(OC)c1OC [Compound 17k]" measured_property="Z isomer, changes over time" test_result=74.02%

----------
Measured εmax (n→π*) values are reported for all entries that follow.
# test-method-notes: UV–VIS spectra of E/Z isomers in DMSO
# Assay type: physicochemical
# particulars: Z isomer
measured-property: εmax (n→π*) (dm^3·mol^−1·cm^−1)

compound="O=C(/C=C/c1ccc(Br)cc1)c1cccc(/N=N/c2ccc(F)cc2)c1 [Compound 17d]" measured_property="εmax (n→π*)" test_result=850
compound="O=C(/C=C/c1ccc(Br)cc1)c1cccc(/N=N/c2c(F)cccc2F)c1 [Compound 17l]" measured_property="εmax (n→π*)" test_result=1074
compound="COc1cc(/C=C/C(=O)c2cccc(/N=N/c3ccc(F)cc3)c2)cc(OC)c1 [Compound 17b]" measured_property="εmax (n→π*)" test_result=898
compound="COc1cc(/C=C/C(=O)c2cccc(/N=N/c3ccc(F)cc3F)c2)cc(OC)c1 [Compound 17f]" measured_property="εmax (n→π*)" test_result=1150
compound="O=C(/C=C/c1ccc(Br)cc1)c1cccc(/N=N/c2ccc(F)cc2F)c1 [Compound 17h]" measured_property="εmax (n→π*)" test_result=1016
compound="COc1cc(/C=C/C(=O)c2cccc(/N=N/c3c(F)cccc3F)c2)cc(OC)c1 [Compound 17j]" measured_property="εmax (n→π*)" test_result=1130

----------
# test-method-notes: Changes over time of Z to E transition by 19F NMR
# Type: physicochemical
# particulars: light 525 nm, 100 mM in DMSO
measured-property: Δ (Z to E change 0 h to 8 h) (%)

compound="COc1cc(/C=C/C(=O)c2cccc(/N=N/c3c(F)cccc3F)c2)cc(OC)c1OC [Compound 17k]" measured_property="Δ (Z to E change 0 h to 8 h)" test_result=7.21
compound="COc1cc(/C=C/C(=O)c2cccc(/N=N/c3c(F)cccc3F)c2)cc(OC)c1 [Compound 17j]" measured_property="Δ (Z to E change 0 h to 8 h)" test_result=5.3
compound="O=C(/C=C/c1ccc(Br)cc1)c1cccc(/N=N/c2c(F)cccc2F)c1 [Compound 17l]" measured_property="Δ (Z to E change 0 h to 8 h)" test_result=7.66
compound="COc1ccc(/C=C/C(=O)c2cccc(/N=N/c3c(F)cccc3F)c2)cc1OC [Compound 17i]" measured_property="Δ (Z to E change 0 h to 8 h)" test_result=8.65

----------
Parameter Z isomer, changes over time: see the listing below.
# test-method-notes: Changes over time of Z to E transition by 19F NMR
# Format: physicochemical
# particulars: 0 h, light 505 nm, 100 mM in DMSO
measured-property: Z isomer, changes over time (%)

compound="COc1cc(/C=C/C(=O)c2cccc(/N=N/c3ccc(F)cc3F)c2)cc(OC)c1 [Compound 17f]" measured_property="Z isomer, changes over time" test_result=47.13
compound="COc1ccc(/C=C/C(=O)c2cccc(/N=N/c3ccc(F)cc3F)c2)cc1OC [Compound 17e]" measured_property="Z isomer, changes over time" test_result=46.84
compound="COc1ccc(/C=C/C(=O)c2cccc(/N=N/c3ccc(F)cc3)c2)cc1OC [Compound 17a]" measured_property="Z isomer, changes over time" test_result=32.44
compound="COc1cc(/C=C/C(=O)c2cccc(/N=N/c3ccc(F)cc3)c2)cc(OC)c1OC [Compound 17c]" measured_property="Z isomer, changes over time" test_result=30.59
compound="COc1cc(/C=C/C(=O)c2cccc(/N=N/c3ccc(F)cc3)c2)cc(OC)c1 [Compound 17b]" measured_property="Z isomer, changes over time" test_result=32.38
compound="COc1cc(/C=C/C(=O)c2cccc(/N=N/c3ccc(F)cc3F)c2)cc(OC)c1OC [Compound 17g]" measured_property="Z isomer, changes over time" test_result=44.82
